Test: amyloid nucleation score (Sup35N fusion, yeast selection) (log enrichment); library NNK3; higher = more nucleation; inactive = no reads after selection;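 note: zero at mode of non-aggregating sequences after 7 days selection at 30°C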
PROPERTY LABEL: amyloid nucleation score

Worked set:
In [3]: df
Out[3]:
              substance  meas_value
0  LSYGFLGDRYVLHGCLMYFP    inactive
1  VFSEWYVFHGQEVSTIHCAH    inactive
2  NFCLMLDVWINTFRDIIYWG    inactive
3             VLMSYQVCV    inactive
4  ILLGIEAPCVSITYYFKTFL        1.32
5       SRCNIFGRPSASIAR    inactive

Q) Check the records and state amyloid nucleation score for FSFYFQDNTIKRWEAIED
A) inactive

Q) For the substance ADVNTL , report amyloid nucleation score.
A) inactive

Q) For the substance AAEPEVDNSYTAGDSGTRGT , give its measured amyloid nucleation score value.
A) inactive

Q) Name the recorded amyloid nucleation score of the substance listed here: RYSVYGLNICFL
A) 2.45

Q) Recall and state the measured amyloid nucleation score for HIVPAVCT .
A) inactive

Q) Look up and report measured amyloid nucleation score for this entry: INVSLGHAGEGWVWLALHLR
A) inactive

Q) Supply amyloid nucleation score value. Item: YMVHDHFKSNFRMCGCGYFN
A) inactive

Q) Give a short answer stating reported amyloid nucleation score for RMTMRRSSWQVEGITSLRIL .
A) inactive

Q) Please give the documented amyloid nucleation score of LFCRVWSFGVLMCFE
A) inactive

Q) Specify reported amyloid nucleation score for the substance shown: LGESMRRVKVSVQIRIHMGQ
A) 1.11

###

Assay: amyloid nucleation score (Sup35N fusion, yeast selection) (log enrichment); library NNK2; higher = more nucleation; inactive = no reads after selection
PROPERTY LABEL: amyloid nucleation score

>>> df
       primary_sequence  meas_value
0  YDRDCTRPCSPSSRGNFRDE    inactive
1     TFFGWLALRIWARYRYE    inactive
2  EDIGSGGKTRFLDRRWVFCN    inactive
3  MFYPRSSFSWDFPTFGLSLP    inactive

Q) Using the record for WVACWTSLLYQVIVIIRGLN , state its measured amyloid nucleation score.
A) 0.975

###

Experiment: amyloid nucleation score (Sup35N fusion, yeast selection) (log enrichment); library NNK1; higher = more nucleation; inactive = no reads after selection
PROPERTY LABEL: amyloid nucleation score

In [3]: df
Out[3]:
       primary_sequence  meas_value
0  SLWIKQLRERVANFLAGFEG    inactive
1  SYRGVRIGSGGLMYRGANSF    inactive
2  NDDRFSLLCGRGRSGLSEWC    inactive

###

Assay: amyloid nucleation score (Sup35N fusion, yeast selection) (log enrichment); library NNK3; higher = more nucleation; inactive = no reads after selection
PROPERTY LABEL: amyloid nucleation score

In [3]: df
Out[3]:
              substance  meas_value
0    CKFEMSEIDFVYASSIFR    inactive
1  MLGDLAYCGYMSSAGVGSLI    inactive
2          ELFDERQRLEPI    inactive
3  SAACPWNWLDGASPPLRATA    inactive
4  CVEVLWERPSGTRAGMVGLL      -0.792

Attention now shifts to the item below.
Q) Please give the documented amyloid nucleation score of SSYLGECVKRPDPPRISKTL
A) inactive
